Reported IC50; IL-9 20 pM; NK92/hIL7R/STAT3-luc values for the following binders.
Biological target: T1, human IL2Rγ (endogenously expressed on cells) (human, UniProt P31785 23-369)
T1 sequence (looked up): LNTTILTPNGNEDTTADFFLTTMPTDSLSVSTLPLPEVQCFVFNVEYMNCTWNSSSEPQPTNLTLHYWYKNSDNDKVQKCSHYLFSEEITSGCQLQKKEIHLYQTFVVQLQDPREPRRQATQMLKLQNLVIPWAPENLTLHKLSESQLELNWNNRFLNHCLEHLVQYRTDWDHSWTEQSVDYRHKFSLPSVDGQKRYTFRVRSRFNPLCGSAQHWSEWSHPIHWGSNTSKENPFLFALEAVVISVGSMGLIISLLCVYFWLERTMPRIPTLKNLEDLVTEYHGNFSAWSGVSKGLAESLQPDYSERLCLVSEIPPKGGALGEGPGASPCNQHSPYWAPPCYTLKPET
Experiment: cell-based or functional assay
# value in M; strip the unit string

- BINDER: "H4H12889P (antibody, human IgG4 S228P, kappa, V domains shown, human IgG4; also called REGN7257) VH: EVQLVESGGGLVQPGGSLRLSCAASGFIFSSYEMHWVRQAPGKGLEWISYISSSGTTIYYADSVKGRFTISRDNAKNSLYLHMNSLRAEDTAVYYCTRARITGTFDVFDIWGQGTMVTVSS VL: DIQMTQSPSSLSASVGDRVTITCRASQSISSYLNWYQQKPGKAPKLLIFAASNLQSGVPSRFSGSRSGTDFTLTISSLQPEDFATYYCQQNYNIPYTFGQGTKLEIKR"
  EXPERIMENTAL_ENDPOINT: "IC50; IL-9 20 pM; NK92/hIL7R/STAT3-luc"
  EXPERIMENTAL_VALUE: "7.1e-09"

Now look at this entry.
Could you share which IC50; IL-9 20 pM; NK92/hIL7R/STAT3-luc value was measured for H4H12863P (antibody, human IgG4 S228P, kappa, V domains shown, human IgG4) VH: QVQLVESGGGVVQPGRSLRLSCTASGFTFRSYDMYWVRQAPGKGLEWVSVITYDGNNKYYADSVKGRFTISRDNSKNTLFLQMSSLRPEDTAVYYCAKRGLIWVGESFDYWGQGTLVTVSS VL: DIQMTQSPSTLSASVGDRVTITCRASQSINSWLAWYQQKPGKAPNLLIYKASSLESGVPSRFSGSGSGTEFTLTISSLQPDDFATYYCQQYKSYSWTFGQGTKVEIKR ?
4.7e-10
